Each entry below lists one item and its recorded hERG current change (%, negative = inhibition) at 10uM value.
biological target: human ether-à-go-go-related gene (hERG) potassium channel (human); assay: primary screen, population patch clamp on CHO cells stably expressing hERG; higher = less effect of the substance;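 further: peak tail current of the secondary pulse compared with the same well before compound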
Hit rate of the full screen: of about 310,000 compounds, about 14,000 (4.5%) showed an effect of 50% or more. Effects have a minus sign here. The sample holds strong results, similar compounds and a random draw of the others, so the mix is not that of the screen.
Reply with just the number (in %).

// worked examples, hERG current change (%, negative = inhibition) at 10uM included
CC(=O)NC1CC2CCCC(C1)N2C(=O)Nc1ccc(Cl)c(C(F)(F)F)c1 (centres unmarked)
-3.34
COc1ccc(CCN2C(=O)C3C4CC(C5C(C(N)=O)=NOC45)C3C2=O)cc1OC (centres unmarked)
-2.12
COc1ccc(CN2C3CCCC2CC(NC(=O)Nc2ccccc2)C3)cc1 (centres unmarked)
-74.1

Request: May I ask what hERG current change (%, negative = inhibition) at 10uM has been recorded for COc1ccc(CCN2C(=O)C3C4CC(C5C(C(=O)NN)=NOC45)C3C2=O)cc1OC (centres unmarked) ?
Response: 7.3

Request: May I ask what hERG current change (%, negative = inhibition) at 10uM has been recorded for COc1ccc(NC(=O)NC2CC3CCCC(C2)N3Cc2ccccc2)cc1 (centres unmarked) ?
Response: -50.1

* * *

target: human ether-à-go-go-related gene (hERG) potassium channel (human); assay: primary screen, population patch clamp on CHO cells stably expressing hERG; higher = less effect of the substance;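 further: peak tail current of the secondary pulse compared with the same well before compound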
Hit rate of the full screen: of about 310,000 compounds, about 14,000 (4.5%) showed an effect of 50% or more. Effects have a minus sign here. Many of the other results were omitted from the sample, so strong results are more common in it than they were.
readout kind: hERG current change (%, negative = inhibition) at 10uM (%)
Reply with just the number (in %).

C=C1c2ccc(C)cc2NC(=O)N1c1ccccc1
-1.2
Cc1ccc(S(=O)(=O)N(C)C)cc1NC(=O)COC(=O)/C=C/c1ccc2c(c1)OCO2
-9.63
Cc1cccc(NC(=O)CN(c2ccc(C(C)C)cc2)S(=O)(=O)c2c(C)nn(C)c2C)n1
-12.2
CNC(=S)N1CCn2cccc2C1c1cccnc1 (stereo not shown)
6.45
CN(C)c1nc(OCCNC(=O)Nc2ccccc2)nc(N2CCCCC2)n1
0.123
COc1ccc(/C(N)=N/OC(=O)Cc2ccc(C)cc2)cc1
9.68
Brc1ccc(-n2cc(-c3ccccc3)c3c(NN4CCOCC4)ncnc32)cc1
-15.7
Cc1nn(C)c(C)c1S(=O)(=O)N(CC(=O)NCc1ccco1)c1ccc(C(C)C)cc1
16.6
O=C1CC2(CCCCC2)Oc2ccc(O)cc21
-11.8
Cc1nn(C)c(C)c1S(=O)(=O)N(CC(=O)NCCCN1CC(C)CC(C)C1)c1ccc(C(C)C)cc1 (stereo not shown)
-66.4

Request: May I ask what hERG current change (%, negative = inhibition) at 10uM has been recorded for "Cc1nn(C)c(C)c1S(=O)(=O)N(CC(=O)NCCN1CCOCC1)c1ccc(C(C)C)cc1" ?
Response: -2.41

Request: May I ask what hERG current change (%, negative = inhibition) at 10uM has been recorded for "CN(Cc1ccccc1F)C(=O)c1ccc(NS(=O)(=O)c2ccc3[nH]c(=O)[nH]c3c2)cc1" ?
Response: 6.14

Request: May I ask what hERG current change (%, negative = inhibition) at 10uM has been recorded for "CCn1c(O)c(/C=N/NC(=O)c2ccccc2)c(=O)n(CC)c1=S" ?
Response: 13.6

Request: May I ask what hERG current change (%, negative = inhibition) at 10uM has been recorded for "Cc1ccc(S(=O)(=O)N(C)c2ccc(OC(=O)CN3C(=O)NC4(CCCC4)C3=O)cc2)cc1" ?
Response: -14.4

Request: May I ask what hERG current change (%, negative = inhibition) at 10uM has been recorded for "Cc1nn(C)c(C)c1S(=O)(=O)N(CC(=O)Nc1ccccn1)c1ccc(C(C)C)cc1" ?
Response: -7.4

* * *

molecular target: human ether-à-go-go-related gene (hERG) potassium channel (human); experiment: primary screen, population patch clamp on CHO cells stably expressing hERG; higher = less effect of the substance;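 further: peak tail current of the secondary pulse compared with the same well before compound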
The campaign covered roughly 310,000 compounds. About 14,000 (4.5%) showed an effect of 50% or more. The effect is printed as a negative number. Shown is part of a subset that was picked to be rich in strong results.
Each entry below lists one item and its recorded hERG current change (%, negative = inhibition) at 10uM value.
Reply with just the number (in %).

// worked examples, hERG current change (%, negative = inhibition) at 10uM included
CCOc1ccc(Br)cc1CNCc1cccnc1
-10.2
COc1cccc(CNC(=O)CCC2CCCN(Cc3ccc4c(c3)CCO4)C2)c1 (stereo not drawn)
-33.6
Brc1ccc(OCc2ccccc2)c(CNCc2ccncc2)c1.Cl
-19.9

Request: May I ask what hERG current change (%, negative = inhibition) at 10uM has been recorded for O=C(CCC1CCCN(C(=O)c2ccc3c(c2)OCO3)C1)NCc1ccc(F)c(F)c1 (stereo not drawn) ?
Response: -8.73

Request: May I ask what hERG current change (%, negative = inhibition) at 10uM has been recorded for "Cl.Fc1ccccc1COc1ccc(Br)cc1CNCc1cccnc1" ?
Response: -70.2

Request: May I ask what hERG current change (%, negative = inhibition) at 10uM has been recorded for "CCC(CC)C(=O)c1c[nH]c(C(=O)NCc2cccnc2)c1" ?
Response: 18.6

Request: May I ask what hERG current change (%, negative = inhibition) at 10uM has been recorded for "Cl.Fc1ccc(COc2ccccc2CNCc2ccncc2)cc1" ?
Response: -32.6

Request: May I ask what hERG current change (%, negative = inhibition) at 10uM has been recorded for Cc1nc(NC(=O)C2CCCCC2C(=O)O)sc1C (stereo not drawn) ?
Response: 12

* * *

target: human ether-à-go-go-related gene (hERG) potassium channel (human, UniProt Q12809); assay: primary screen, population patch clamp on CHO cells stably expressing hERG; higher = less effect of the substance;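 further: peak tail current of the secondary pulse compared with the same well before compound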
Sequence (Q12809 whole entry, looked up): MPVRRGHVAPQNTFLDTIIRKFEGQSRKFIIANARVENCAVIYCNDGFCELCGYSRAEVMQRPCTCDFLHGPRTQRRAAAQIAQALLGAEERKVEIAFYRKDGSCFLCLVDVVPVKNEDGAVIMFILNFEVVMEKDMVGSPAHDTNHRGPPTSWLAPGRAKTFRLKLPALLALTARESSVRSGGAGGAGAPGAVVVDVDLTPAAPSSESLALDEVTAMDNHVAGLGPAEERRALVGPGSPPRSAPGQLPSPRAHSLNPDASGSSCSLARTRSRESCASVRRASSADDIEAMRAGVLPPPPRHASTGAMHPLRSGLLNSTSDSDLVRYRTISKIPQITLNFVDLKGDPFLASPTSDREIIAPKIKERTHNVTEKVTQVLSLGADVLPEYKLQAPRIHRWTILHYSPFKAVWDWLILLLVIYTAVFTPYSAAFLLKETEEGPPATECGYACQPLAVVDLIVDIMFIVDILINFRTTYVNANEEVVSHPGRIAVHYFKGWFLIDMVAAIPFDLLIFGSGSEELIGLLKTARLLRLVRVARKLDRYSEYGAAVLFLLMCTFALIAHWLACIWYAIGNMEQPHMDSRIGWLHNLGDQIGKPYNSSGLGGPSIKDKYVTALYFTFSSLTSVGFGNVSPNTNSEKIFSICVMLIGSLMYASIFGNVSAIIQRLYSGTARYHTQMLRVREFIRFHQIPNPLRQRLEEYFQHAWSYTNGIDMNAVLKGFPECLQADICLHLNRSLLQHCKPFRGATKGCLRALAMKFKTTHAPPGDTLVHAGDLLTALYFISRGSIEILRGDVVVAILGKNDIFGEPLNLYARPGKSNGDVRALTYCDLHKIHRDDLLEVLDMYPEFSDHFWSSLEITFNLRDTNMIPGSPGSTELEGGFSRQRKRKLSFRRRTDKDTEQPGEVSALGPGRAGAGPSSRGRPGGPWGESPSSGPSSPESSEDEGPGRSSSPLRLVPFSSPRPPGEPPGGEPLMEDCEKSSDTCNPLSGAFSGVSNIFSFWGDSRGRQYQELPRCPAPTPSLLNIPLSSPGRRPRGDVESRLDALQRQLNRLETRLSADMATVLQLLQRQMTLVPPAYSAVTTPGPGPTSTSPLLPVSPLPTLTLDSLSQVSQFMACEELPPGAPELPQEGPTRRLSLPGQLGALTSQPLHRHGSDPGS
Screen size: about 310,000 compounds; about 14,000 (4.5%) showed an effect of 50% or more. Effects have a minus sign here. For the sample, strong results were picked, then their nearest neighbours and some compounds at random.
readout kind: hERG current change (%, negative = inhibition) at 10uM (%)
Reply with just the number (in %).

// worked examples, hERG current change (%, negative = inhibition) at 10uM included
CCOC(=O)N1CCN(C(=O)CSc2nc(-c3cccc(C)c3)ns2)CC1
-38.8
O=C(Nc1ccc2nc3ccccc3nc2c1)c1ccc(Br)cc1
17.9
Clc1ccc(C(c2nnnn2C2CCCC2)N2CCN(Cc3ccncc3)CC2)cc1 (centres unmarked)
-71.7
N#CC(C#N)=Cc1cc2ccccc2nc1N1CCCCC1
2.22
O=[N+]([O-])c1ccc(O)c(/C=N/n2cnc3ccccc32)c1
19.2

Request: May I ask what hERG current change (%, negative = inhibition) at 10uM has been recorded for "COc1ccc(C(=O)NCC(C)(C)N2CCOCC2)cc1S(=O)(=O)N1CCCC1" ?
Response: -8.82

Request: May I ask what hERG current change (%, negative = inhibition) at 10uM has been recorded for c1ccc(CN2CCN(C(c3ccccc3)c3nnnn3Cc3ccccc3)CC2)cc1 (centres unmarked) ?
Response: -64.7

Request: May I ask what hERG current change (%, negative = inhibition) at 10uM has been recorded for "CC(=O)Nc1ccc(NC(=O)CSc2nnnn2C2CCCCC2)cc1" ?
Response: -8.79

Request: May I ask what hERG current change (%, negative = inhibition) at 10uM has been recorded for COc1cccc2c1C(CO)N1C(C#N)C3CC(C(=O)O)C(C1C2)N3C (centres unmarked) ?
Response: 12.3

Request: May I ask what hERG current change (%, negative = inhibition) at 10uM has been recorded for "COc1cccc(C(=O)/C=C/Nc2ccc(S(=O)(=O)Nc3nc(C)cc(C)n3)cc2)c1" ?
Response: -1.4

Request: May I ask what hERG current change (%, negative = inhibition) at 10uM has been recorded for Cc1ccc(C(c2nnnn2CC2CCCO2)N2CCN(Cc3ccccc3)CC2)cc1 (centres unmarked) ?
Response: -74.9

Request: May I ask what hERG current change (%, negative = inhibition) at 10uM has been recorded for "O=C(NCCN1CCOCC1)c1ccc(Cl)c(S(=O)(=O)N2CCCCC2)c1" ?
Response: -58.3

Request: May I ask what hERG current change (%, negative = inhibition) at 10uM has been recorded for "CCN(CC)c1ccc(/C=N/OCC(=O)Nc2cccc(C)c2)cc1" ?
Response: -2.16

Request: May I ask what hERG current change (%, negative = inhibition) at 10uM has been recorded for "Br.O=C(Cn1c(NCCCO)nc2ccccc21)c1ccc(F)cc1" ?
Response: -9.54

Request: May I ask what hERG current change (%, negative = inhibition) at 10uM has been recorded for "Cc1ccc(S(=O)(=O)N2CCOCC2)cc1C(=O)NCc1ccccn1" ?
Response: -0.76

Request: May I ask what hERG current change (%, negative = inhibition) at 10uM has been recorded for "O=C(NCCN1CCOCC1)c1ccc(Cl)c(S(=O)(=O)N2CCCC2)c1" ?
Response: -0.109

Request: May I ask what hERG current change (%, negative = inhibition) at 10uM has been recorded for Cc1ccc(C(c2nnnn2CC2CCCO2)N2CCN(C(=O)c3ccco3)CC2)cc1 (centres unmarked) ?
Response: -4.13

Request: May I ask what hERG current change (%, negative = inhibition) at 10uM has been recorded for "O=C(NCCN1CCOCC1)c1ccc(Cl)c(S(=O)(=O)N2CCOCC2)c1" ?
Response: 13.1

Request: May I ask what hERG current change (%, negative = inhibition) at 10uM has been recorded for "Cc1ccc(C(=O)NCCN2CCOCC2)cc1S(=O)(=O)N1CCCCC1" ?
Response: -20.7

Request: May I ask what hERG current change (%, negative = inhibition) at 10uM has been recorded for Cl.Fc1ccc(C(c2nnnn2C2CCCC2)N2CCN(Cc3ccncc3)CC2)cc1 (centres unmarked) ?
Response: -24.8
